# TARGET ENTITY: T1, 4H3613-bH
# T1 chain: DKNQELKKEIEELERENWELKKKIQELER
# ASSAY NOTES: two-hybrid library CCNG1;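 also: natural log of median RNA to DNA barcode read ratio; higher means stronger binding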
ENDPOINT NAME: interaction score

BINDER: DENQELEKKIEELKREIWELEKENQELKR [4H1348-bH]
ENDPOINT NAME: interaction score
REPORTED MEASUREMENT: -1.69
--
BINDER: DKNQELEKENEELKRKIWELEKEIQELKR [4H3298-bH]
ENDPOINT NAME: interaction score
REPORTED MEASUREMENT: -1.68
--
BINDER: DKNQELKKEIEELERENWELKKKIQELER [4H3613-bH]
ENDPOINT NAME: interaction score
REPORTED MEASUREMENT: 0.898
